tested on: COLO 205 colon; assay: NCI-60 one-dose screen, 48 h (100 = growth as untreated, 0 = no growth, -100 = all killed); settings: 10 µM unless noted
The panel holds about 83,000 compounds, 20% with a hit somewhere; the sample as a whole holds those more often.
Response key: y means growth >= 40%; n means growth < 40%.

Example entries and their recorded answers appear below.
[
  {
    "compound": "CCC(=O)Oc1cc(/C=C/C(=O)O[C@H]2C[C@H]3CN4CCc5c([nH]c6cc(OC)ccc56)[C@@H]4C[C@@H]3[C@@H](C(=O)OC)[C@@H]2OC)ccc1OC",
    "class_label": "y"
  },
  {
    "compound": "COc1cc(C(=O)N2CCN(C(=O)c3ccco3)CC2)c(N)cc1OCc1ccccc1",
    "class_label": "y"
  },
  {
    "compound": "COc1ccc(/C=C\\c2cc(OC)c(OC)c(OC)c2)c(NS(=O)(=O)c2ccc(C(C)(C)C)cc2)c1O",
    "class_label": "n"
  },
  {
    "compound": "CCCCCCCCCCn1cc[n+](C)c1",
    "class_label": "n"
  },
  {
    "compound": "CCn1cc(C2NC(=O)c3cc(F)ccc3N2)c2cccc(Cl)c21 (stereo not drawn)",
    "class_label": "n"
  },
  {
    "compound": "COc1ccc(C(=O)c2cc(OC)c(OC)c(OC)c2)cc1/C=C/C(=O)c1ccc2c(c1)OCO2",
    "class_label": "n"
  }
]

q: Check if growth >= 40% (inclusive). Item: CN(C)c1ccc(/C=C\N=Nc2ccc(Br)cc2)cc1
a: y

q: Check if growth >= 40% (inclusive). Item: Nc1nc(-c2cc3ccccc3o2)cc(=O)c(=O)[nH]1
a: y

q: Check if growth >= 40% (inclusive). Item: O=C(Nc1ccc(OCc2nnc(-c3ccc(Cl)cc3)o2)c(F)c1)Nc1ccc(Cl)c(Cl)c1
a: y

q: Check if growth >= 40% (inclusive). Item: COc1ccc(-n2cnc3c(sc4ncc(Cl)cc43)c2=O)cc1
a: y

q: Check if growth >= 40% (inclusive). Item: Cc1ccc(S(=O)(=O)N2CCC(C(=O)Nc3ccc(F)cc3F)CC2)cc1
a: y

q: Check if growth >= 40% (inclusive). Item: O=C(O)c1cccc([N+](=O)[O-])c1/C=C/c1ccccc1
a: y

q: Check if growth >= 40% (inclusive). Item: COc1cc(NCCN=C(N)NC(N)=NC(C)C)c2ncccc2c1
a: n

q: Check if growth >= 40% (inclusive). Item: COc1ccc(/C=C/C(=O)OCC(=O)NNC(=O)c2ccccc2)cc1OC
a: y

q: Check if growth >= 40% (inclusive). Item: Cc1ccc2c(c1)C(=O)C(c1c(-c3[nH]c(=O)c4ccc(C)cc4c3O)c(O)c3ccccc3c1O)=NC2=O
a: y

q: Check if growth >= 40% (inclusive). Item: C=C1C(=O)O[C@H]2[C@H](O)[C@@H](C)CCC/C(C)=C/CC[C@@]3(C)O[C@@H]3C[C@@H]12
a: y

q: Check if growth >= 40% (inclusive). Item: NC(=S)NN=C1CCCCC1
a: y

q: Check if growth >= 40% (inclusive). Item: Nc1nc(Cl)c2c(ncn2Cc2ccc(CCl)cc2)n1
a: y

---

I'd appreciate it if you could supply growth values for the items below.
system: K-562 leukemia; test: NCI-60 one-dose screen, 48 h (100 = growth as untreated, 0 = no growth, -100 = all killed); conditions: 10 µM unless noted
The panel holds about 83,000 compounds, 20% with a hit somewhere; the sample as a whole holds those more often. The source made the active and inactive calls. The calls were made as follows: active = growth percent below 10; inactive = the rest.

Here are 3 compounds together with their reported answers.
[
  {
    "compound": "COc1ccc(C(=O)N2CCN(C(=O)c3cc(OC)c(OC)c(OC)c3)CC2)cc1OCCCCOc1cc2c(cc1OC)C(=O)N1CCC[C@H]1C=N2",
    "result": "116% (inactive)"
  },
  {
    "compound": "Cc1ccc2c(c1)ncn2-c1ncnc2c1CC(C)c1ccccc1N2C (centres undefined)",
    "result": "7.17% (active)"
  },
  {
    "compound": "COC(=O)C(CC(=O)c1ccc(-c2ccccc2)cc1)c1ccccc1 (centres undefined)",
    "result": "20.6% (inactive)"
  }
]

Quick request: growth for each listed item, please.
1. COc1ccc(/C=C/c2nc(N3CCOCC3)c3cc(F)c(F)cc3n2)cc1OC
2. C=C1C(=O)O[C@H]2[C@H]1CC/C(COC(=O)NCc1ccc(OC)cc1)=C\CC[C@@]1(C)O[C@@H]21
3. CCC(c1cccc(Br)c1)C(C(=O)O)c1ccc(OC)cc1 (centres undefined)
4. O=S(=O)(NCCCNc1nccc(-c2c(-c3ccc(O)cc3)nc3sccn23)n1)c1ccc(F)cc1
5. CCC1CCc2nc3sc(C(=O)Nc4ccccc4C)c(N)c3cc2C1 (centres undefined)

a:
1: 16.4% (inactive); 2: 14% (inactive); 3: 77.6% (inactive); 4: 7.51% (active); 5: 24.1% (inactive)

Quick request: growth for each listed item, please.
1. COc1ccc(C(=O)/C=C/c2cc(C(=O)c3cc(OC)c(OC)c(OC)c3)ccc2OC)cc1
2. CN(C)c1ncc(-c2ccc(C(F)(F)F)cc2)c(NC2CCCCCC2)n1
3. O=C(CN1CCN(c2cc3c(cc2F)c(=O)c(C(=O)O)cn3C2CC2)CC1)Nc1ccc(C(=O)/C=C/c2ccc(Cl)cc2)cc1
4. CCC#CC[C@H]1C/C=C2/C(=O)C=C[C@@H]2C/C=C\CCCC(=O)O1
5. COc1ccc2c(c1)C(C)Cc1c(N(C)C)ncnc1N2C (centres undefined)
6. COc1cccc2cc(-c3cc4ccccc4[nH]3)c(=NC(=O)c3ccc(Cl)cc3)oc12

a:
1: 12.8% (inactive); 2: 28.2% (inactive); 3: 104% (inactive); 4: 2.38% (active); 5: 15.1% (inactive); 6: 39.7% (inactive)

---

system: DU-145 prostate; test: NCI-60 one-dose screen, 48 h (100 = growth as untreated, 0 = no growth, -100 = all killed); conditions: 10 µM unless noted
The panel holds about 83,000 compounds, 20% with a hit somewhere; the sample as a whole holds those more often.
measurement_kind: growth (%)
Numbers only, in %.

Here are 8 molecules together with their reported answers.
[
  {
    "molecule": "CCN1C(=O)/C(=c2\\sc3n(c2=O)C2C(NN=3)N(CC)C(=S)N2CC)c2ccccc21 (centres undefined)",
    "units_symbol": "%",
    "growth": 115
  },
  {
    "molecule": "COc1cccc(/C=C/C(=O)c2sc(Nc3ccc(O)cc3)nc2C)c1",
    "units_symbol": "%",
    "growth": 94.9
  },
  {
    "molecule": "CC(Br)C(OC(=O)c1ccccc1Cl)c1cc2c(cc1Br)OCO2 (centres undefined)",
    "units_symbol": "%",
    "growth": 92.7
  },
  {
    "molecule": "Nc1c(C(=O)Nc2ccccc2)sc2nc3c(cc12)CN(Cc1ccccc1)CC3",
    "units_symbol": "%",
    "growth": 58.9
  },
  {
    "molecule": "Cc1ccc(Cn2c(-c3nonc3N)nc3ccccc32)cc1",
    "units_symbol": "%",
    "growth": 100
  },
  {
    "molecule": "O=C(Nc1ccc(I)cc1)c1cc([N+](=O)[O-])ccc1O",
    "units_symbol": "%",
    "growth": 51.4
  },
  {
    "molecule": "C=CCN=C1NC(=O)/C(=C/c2cc(C(C)(C)C)c(O)c(C(C)(C)C)c2)S1",
    "units_symbol": "%",
    "growth": 84
  },
  {
    "molecule": "CN(C)c1ncc(-c2ccc(C(F)(F)F)cc2)c(NC2CCCCCC2)n1",
    "units_symbol": "%",
    "growth": 84.9
  }
]

Quick request: growth for each listed item, please.
1. O=C1C2=C(C(=O)c3c(O)ccc(O)c31)N(c1cccnc1)Cc1ccccc1O2
2. C[C@]12CC[C@@H]3c4cc(O)c(O)cc4CC[C@H]3[C@@H]1CC[C@@H]2O
3. O=C(CSc1nc(-c2ccc(Cl)cc2)cn1-c1ccc(Cl)cc1)c1ccc(Br)cc1
4. O=S(=O)(NCCCNc1nccc(-c2c(-c3ccc(F)c(O)c3)nc3sccn23)n1)c1ccc(Cl)cc1
5. COc1cc(/C=C/C(=O)c2ccc(NC(=O)CN3CCN(c4cc5c(cc4F)c(=O)c(C(=O)O)cn5C4CC4)CC3)cc2)cc(OC)c1OC
6. C=CCn1c(C)nc2ccc(Nc3nc(Nc4ccc(F)cc4)nc4ccccc34)cc21

a:
[-96.6, 39.1, 90.9, 87.4, 2.17, 74.1]

Quick request: growth for each listed item, please.
1. O=C(Nc1ccc(F)c(Cl)c1)c1n[nH]c(=O)c2ccccc12
2. COc1ccc(/C(=N/O)c2cc(OC)c(OC)c(OC)c2)c(OC)c1N
3. COc1ncc(-c2ccc3ncnc(Nc4cccc(Cl)c4)c3c2)cc1NS(=O)(=O)C1CC1
4. O=c1[nH]c(CN2CCN(c3ccccc3F)CC2)nc2sc3c(c12)CCC3
5. Cc1ccc(S(=O)(=O)N2CCC(C(=O)Nc3ccc(F)cc3F)CC2)cc1

a:
1: 131; 2: 39; 3: 26; 4: 109; 5: 97.4

Quick request: growth for each listed item, please.
1. COc1cc2nc(SCc3cc(OC)c(OC)c(OC)c3)n(Cc3ccccc3)c(=O)c2cc1OC
2. COc1cc(C2CC(c3c(C)[n+]([O-])c4ccccc4[n+]3[O-])=NN2)cc(OC)c1OC (centres undefined)

a:
1: 49.8; 2: 112

Quick request: growth for each listed item, please.
1. COc1ccc(/C=C2\CCCC3=C2NC(C)=NC3c2ccc(OC)c(OC)c2)cc1OC (centres undefined)
2. COc1ccc2c(c1)NC(=O)CN2c1nc(C)nc2ccccc12
3. CN1C(=O)[C@H]2c3c1cccc3[C@@]13NC(=O)O[C@H]1[C@H](CCC3(C)C)C2(C)C
4. c1cncc(CNc2ccccc2-c2nnc(Nc3ccc4c(c3)OCCO4)o2)c1
5. COc1ccc(-n2cnc3c(sc4ncc(Cl)cc43)c2=O)cc1
6. CCCCC(N)(C(=O)O)C1CCCC1 (centres undefined)
7. COc1cc(/C=C/C(=O)c2ccccc2O)ccc1OCCCOc1cc2c(cc1OC)C(=O)N1CCC[C@H]1C=N2

a:
1. 7.29
2. -0.215
3. 106
4. -5.96
5. 83.6
6. 122
7. 2.53
